{"columns": ["compound", "melting point"],
 "data": [
  ["CCOC(=O)/C=C/c1cn(-c2ccc(C(F)(F)F)cc2)nc1OCc1ccc(OCc2nc(-c3ccccc3)oc2C)c(OC)c1", "205 to 206 °C"],
  ["CCc1cccc2c(/C=C(/C)C(=O)O)cc(OC)c(O)c12", "127 to 128 °C"],
  ["CC1(c2ccc(OCc3ccccc3)c(C3CO3)c2)OCCO1 (stereo unspecified)", "121 to 123 °C"],
  ["COc1ccc(-n2c(=O)[nH]c3c(C(N)=O)nc(-c4cccc(O)c4)nc32)cc1", "386 to 388 °C"],
  ["CC(C)C(CN(C)c1ccccc1)NS(=O)(=O)c1c(Cl)cc(Cl)cc1Cl (stereo unspecified)", "169 to 170 °C"],
  ["CCOC(=O)c1cc(C)c(Cl)nc1C(=O)OCC", "84 to 86 °C"],
  ["BrCc1noc2cc3ccccc3cc12", "111 to 113 °C"],
  ["O=C1C(c2ccccc2)=C(c2ccccc2)C(c2ccccc2)C1c1ccccc1 (stereo unspecified)", "162 to 163 °C"],
  ["N#Cc1nn(-c2c(Cl)cc(C(F)(F)F)cc2Cl)cc1C=C(F)F", "75 to 77 °C"],
  ["Oc1cc2c(cc1Sc1ccccc1)OCC2", "80 to 81 °C"],
  ["CCOC(=O)C(C#N)=NOS(=O)(=O)c1ccc(C)cc1", "84 to 87 °C"],
  ["Cc1[nH]c(=O)n(C2CCCCC2)c1-c1ccc(Oc2ccccc2)cc1", "198 °C"],
  ["COc1cc2c3c(nc4ccccc4c3c1)-c1ccc(Cl)cc1N2", "240 to 242 °C"],
  ["CC(C)Oc1ccc(NC(=O)C2(Cl)CC2)cc1C(F)(F)F", "106 to 108 °C"],
  ["CCCCCCCCCCOc1cc(OCCCOc2ccc(OCc3ccccc3)cc2)cc(C(=O)OC)c1", "68 to 70 °C"],
  ["CC(C)NCc1nc(-c2ncn3c2CN(C)C(=O)c2ccccc2-3)no1", "142 to 144 °C"]
]}

====

{"columns": ["molecule", "melting point"],
 "data": [
  ["O=C(Nc1nc(O)cc(-c2ccccc2)n1)C(F)(F)F", "166 to 168 °C"],
  ["CCCN(CCC)C(=O)C(CO)Nc1nc(-c2ccccc2)nc(C)c1C (stereo not drawn)", "132 to 133 °C"],
  ["N#Cc1ccc(N2C(=O)N(CCCCO)C3(CCSCC3)C2=O)cc1C(F)(F)F", "139 to 140 °C"]
]}

====

observation_type: melting point

{"columns": ["molecule", "observation_type", "reported"],
 "data": [
  ["Cc1c(C(=O)Nc2ccc(N3CCC(N(CCO)CCO)CC3)c(C#N)c2)cnn1-c1ccc(Cl)cc1", "melting point", "230 to 233 °C"],
  ["COC(=O)c1sc2ccc(OCc3cccnc3)cc2c1Cl", "melting point", "126 to 128 °C"],
  ["Cn1cc(C(=O)CCl)cc1C(=O)c1ccc([N+](=O)[O-])cc1", "melting point", "173 to 176 °C"],
  ["CCOc1ccc(CCCOc2nn(C)cc2CC(=O)O)c(Oc2ccc(Cl)cc2Cl)n1", "melting point", "81 to 83 °C"],
  ["COC(=O)c1cnc(CNC(=O)c2ccccc2)c2ccccc12", "melting point", "140 to 142 °C"],
  ["C=C1C(=O)c2cc(C)ccc2OC1c1ccccc1 (configuration not stated)", "melting point", "57 to 63 °C"],
  ["CCCCn1c2c(c3ccccc3c1=O)C(=O)c1cc3c(cc1-2)OCO3", "melting point", "200 to 201 °C"]
]}

====

The entries below are paired with their reported melting point.
observation_type: melting point

{"columns": ["compound", "reported"],
 "data": [
  ["COc1ccc2cc(-n3cnnc3)cc(C)c2n1", "157 to 159 °C"],
  ["COc1cc(C2CCCCC2)c(Cl)cc1CCO", "78 to 79 °C"],
  ["CC(C)(C)OC(=O)N1CC=C(c2ccc(N)c([N+](=O)[O-])c2)CC1", "111 to 112 °C"],
  ["Cc1cc(OC(=O)C(C)(C)C)cc(C)c1O", "92 to 94 °C"],
  ["Cc1nccn1C(=O)c1c(Cl)cccc1Cl", "116 to 119 °C"],
  ["CC(=O)c1c(-c2cccs2)[nH]c(-c2ccncc2)c1C", "231 to 232 °C"],
  ["COc1ccc(C2C(=O)OC3=CC(O)(OC(C)=O)C=CC3=C2C)c(OC)c1 (centres undefined)", "146 to 148 °C"],
  ["CC(C)(C)c1cc(-c2ccc(C(=O)O)cc2)cc(C(C)(C)C)c1O", "> 240 °C"],
  ["O=C(O)c1cc(Br)cc2c1NCCS2=O (centres undefined)", "254 to 255 °C"],
  ["NS(=O)(=O)N1CCC(CCNC(=O)c2cc(Cl)ccn2)CC1", "186 to 187 °C"],
  ["CCOc1cc([C@@H](CCN(O)C(N)=O)N2Cc3cccc(NC(=O)C(C)C)c3C2=O)ccc1OC", "137 to 139 °C"],
  ["Clc1ccc(Nc2nnc(Cc3ccncn3)c3ccccc23)cc1", "174 to 176 °C"],
  ["CCCCCCCCCCCCCCCCNC(=O)c1cc(OCCN=C=S)c2ccccc2c1O", "90 to 91 °C"],
  ["CC1(C)CC(=O)Nc2c(Br)cc3c(c21)OC(CBr)C3 (centres undefined)", "237 to 239 °C"]
]}

====

Parameter melting point: see the listing below.

{"columns": ["compound", "melting point"],
 "data": [
  ["O=S1(=O)NCC(O)c2ccsc21 (centres undefined)", "138 to 140 °C"],
  ["CCCCOC(=O)c1cc(O)c(O)c(C#N)c1", "135 to 140 °C"],
  ["CSCn1cc(F)c(N=CN(C)C)nc1=O", "132 to 136 °C"],
  ["COCCNCc1ccccc1Oc1ccc(-c2cn(C3CCOC3)c3ncnc(N)c23)cc1 (centres undefined)", "66 to 68 °C"],
  ["CCOC(=O)C1(C(=O)Nc2ccc(Br)cc2C)CCCC1", "64 to 67 °C"],
  ["CC[C@H]1COC(=O)N1c1nc(-c2ccc(C#N)cc2)c(C#N)s1", "201 to 203 °C"],
  ["CC(C)CCC1C(=O)NS(=O)(=O)N1C (centres undefined)", "212 to 214 °C"],
  ["COc1cc(C=CNC(C)=O)ccc1OCC1CO1 (centres undefined)", "173 to 174 °C"],
  ["CN(C)CCCCNc1ncc2c(n1)-c1ccccc1C(c1cccc(Br)c1)C2 (centres undefined)", "115 to 117 °C"]
]}

====

Listed next: entries and their corresponding melting point.
observation_type: melting point

{"columns": ["molecule", "reported"],
 "data": [
  ["CC(C)(S)[C@H]1C[C@H](C(=O)O)CS1 (relative stereo)", "97 to 98.3 °C"],
  ["CC(C)(C)OC(=O)N1CCC(Cc2c[nH]c3ccc(F)cc23)CC1", "144 to 145 °C"],
  ["CCOC(=O)CCCCCN1CCC[C@@H](NCc2ccccc2OC)[C@H]1c1ccccc1 (racemic)", "80 to 95 °C"]
]}

====

# melting point values compiled below

{"columns": ["entry_smiles", "melting point"],
 "data": [
  ["COc1ccc(C(=O)Nc2ccc3ccc(OC4CCN(C)CC4)nc3n2)cc1", "200 °C"],
  ["COC(OC)c1cccc(-c2ccc(C(=O)O)cc2)c1", "130 to 131 °C"],
  ["CC(=O)OCc1cccc(-n2cccc2)c1Br", "84 to 86.5 °C"],
  ["Cn1ncc2c1-c1c(Oc3ccc4c(c3)OCO4)sc(C(=O)NC(C)(C)C)c1CC2", "171 to 179 °C"],
  ["CCOC(=O)c1c(-c2ccccc2)nc(Cl)n1C", "54 to 55 °C"],
  ["CCOC(=O)C=Cc1ccc(N[C@@H](CCC(N)=O)C(=O)O)cc1", "192 to 193 °C"],
  ["O=C(O)c1cccc(F)c1Nc1ccccc1F", "176 °C"],
  ["O=C(NCCN1CCNC1=O)Nc1ccccc1", "162 to 164 °C"],
  ["c1ccc(OCCSCc2nnc(-c3ccc(OCCCN4CCOCC4)cc3)o2)cc1", "65 °C"],
  ["COc1cc(OC)nc(Oc2cccc(F)c2C(=O)O)n1", "133 to 134 °C"],
  ["Nc1ccc(-c2cnc3c(c2)N(Cc2c(F)ccc(F)c2Cl)CCN3)cn1", "> 200 °C"]
]}

====

{"columns": ["molecule", "melting point"],
 "data": [
  ["NNc1cc(-c2ccnc(Nc3cccc(Cl)c3)n2)ccn1", "201 to 203 °C"],
  ["CCOC(=O)Nc1coc2cc(OCc3ccccc3)ccc12", "140 °C"],
  ["Cc1ccc(N2CC(=O)N(C)C(=O)N2)cc1", "193 to 194 °C"],
  ["Cn1c(-c2ccc(Cl)c(S(N)(=O)=O)c2)csc1=Nc1ccccc1", "168 to 171 °C"],
  ["O=C1NC(=O)c2c1c(-c1ccccc1Cl)cc1c2c2cc(O)ccc2n1CCS(=O)c1ncn[nH]1 (stereo not drawn)", "237 to 242 °C"],
  ["CCCCCCCCC(=O)Nc1ccc([N+](=O)[O-])cc1", "76 to 76.5 °C"],
  ["CC(CO)C(O)(Cn1cncn1)c1ccc(Cl)cc1Cl (single isomer, unassigned; (+))", "110 to 111 °C"],
  ["CS(=O)(=O)OCCCCC1C(=O)Nc2ccc(F)cc21 (stereo not drawn)", "106 to 108 °C"],
  ["N#Cc1ccc(COc2ccc3c(c2)CCNC3=O)cc1", "158 to 160 °C"],
  ["CC(=O)N1CCN2C(=O)N(c3cc(Cl)cc(Cl)c3)C(=O)C2(Cc2ccc(Br)cc2)C1 (stereo not drawn)", "89.6 °C"],
  ["Cc1noc(NS(=O)(=O)c2sccc2-c2ccc3c(c2)OCO3)c1Br", "183 to 186 °C"],
  ["O=C(O)CCC(=O)c1ccc(CCNS(=O)(=O)c2ccc(Cl)cc2)cc1", "152 °C"],
  ["CN=C(NC#N)C1=CC2(CCOCC2)Oc2ccc([N+](=O)[O-])cc21", "293 to 294 °C"],
  ["Cn1cc(-c2ncc(-c3ccc4cc(OCC(=O)O)ccc4c3)o2)c2ccccc21", "269 to 272 °C"],
  ["NC(=O)c1nccc(Oc2ccc(N)cc2F)c1Cl", "217 to 218 °C"],
  ["CC(CCNC1=Nc2ccc(S(=O)(=O)N(C)C)c3cccc1c23)n1ccnc1 (stereo not drawn)", "221 to 222 °C"],
  ["Cc1cccc(NC(=O)CN2C(=O)C3(COc4cc5c(cc43)CCO5)c3ccccc32)c1C (stereo not drawn)", "251 to 253 °C"],
  ["OCc1cn(-c2ccc(F)c(Br)c2)cn1", "151 to 152 °C"],
  ["COc1cc2c(cc1OC)N(Cc1ccccc1)C(=O)CN=C2c1cccc(C(F)(F)F)c1", "175 to 178 °C"],
  ["Cc1ccc(C(=O)Nc2ccc(-n3ccnc3C)cc2C(F)(F)F)cc1Nc1nccc(-c2cccnc2)n1", "154 to 163 °C"],
  ["COc1ccc(-c2ccc3c(c2)C=C(C(=O)Nc2ccc(CN(C)C4CCC5(CC4)OCCO5)cc2)CCS3(=O)=O)cc1", "222 to 228 °C"],
  ["COCc1c(-c2ccncc2)[nH]c(-c2ccncc2)c1C(C)=O", "154 to 156 °C"],
  ["O=S(=O)(c1ccccc1)N1CCC(C(O)(c2ccc(F)cc2)c2ccc(F)c(F)c2)CC1 (stereo not drawn)", "97 to 99 °C"],
  ["CN1C(=O)C(C)(C)N=C(c2ccccc2Cl)c2c1ccc(N)c2Cl", "195 to 196 °C"],
  ["O=C1CC(C(=O)NC(c2ccccc2)c2ccc(Cl)cc2)Oc2ccc(F)cc21 (single isomer, unassigned; (+))", "167 °C"],
  ["CCOC(=Cc1ccc(-c2cccc(N(C)C(=O)NCCc3ccccc3)c2)cc1)C(=O)O", "70 °C"],
  ["COc1ccc(CCBr)cc1OC", "72 to 73 °C"],
  ["CCCCN(CCCC)c1ccc(C(C#N)=c2ccc(=C(C#N)C#N)cc2)c(OC)c1", "215 to 238 °C"],
  ["COc1ccc(-c2[nH]nc3c2C(=O)c2c(NC(=O)Cc4ccc(NC(=O)CN)cc4)cccc2-3)cc1", "228 °C"],
  ["COc1ccc2c(c1Br)CCC1C(=O)N(C)C(=O)C21 (stereo not drawn)", "196 to 199 °C"],
  ["O=C(c1ccccc1)N1CCC(C(Nc2ccc(F)cc2)c2ccc(F)cc2)CC1 (stereo not drawn)", "157 to 158 °C"],
  ["COc1ccc(Cc2cccc(-c3c(O)c4ccc(Cl)cc4[nH]c3=O)c2)cc1", "282 to 284 °C"],
  ["CCc1c(CCNC(=O)CCCCC(=O)OC)ccc(OC)c1OC", "37 to 39 °C"],
  ["Nc1cccc(CCC(=O)Nc2ccc(Nc3ccccc3)cc2)c1", "164 to 166 °C"],
  ["C=CC(=O)OCCCNC(=O)CCc1cc(-n2nc3ccccc3n2)c(O)c(C(C)(C)C)c1", "87 to 89 °C"],
  ["COc1ccccc1Cc1c(Cl)ncnc1Cl", "95 to 96 °C"],
  ["Cc1cccc(C(=O)C2CCCc3cccnc32)c1 (stereo not drawn)", "211 to 213 °C"],
  ["CCOC(=O)C(CC=C(C)C=CC1=C(C)CCCC1(C)C)C(C)=O (stereo not drawn)", "152 °C"]
]}
